- Tested on: beta amyloid production
- ASSAY_OVERVIEW: Repressor Release Assay (RRA)
- Format: cell-based
- RUN_PARAMETERS: Conc 20 μg/ml; luciferase activity over diluent control; read-out: APPI Fold Increase
READOUT: fold induction at 20 µg/mL

                                    compound  numeric_result
 0  CC[C@H](C)[C@@H](CO)NS(=O)(=O)c1cc(Cl)ccc1OC             1.7
 1  CC[C@H](C)[C@@H](CO)NS(=O)(=O)c1cccc(Cl)c1Cl             8.3
 2  O=S(=O)(N[C@H](CO)Cc1cc2ccccc2[nH]1)c1ccc(Br)cc1             1.6
 3  CC[C@H](C)[C@@H](CO)NS(=O)(=O)c1cccc(Cl)c1             3.6
 4  O=S(=O)(NC1(CO)CCc2ccccc21)c1ccc(Br)cc1 (stereo not drawn)             1.5
 5  COc1ccc([C@@H](C)[C@@H](CO)NS(=O)(=O)c2ccc(Cl)cc2)cc1             2.5
 6         O=S(=O)(NC1(CO)CCCC1)c1ccc(Br)cc1             2.5
 7  O=S(=O)(N[C@H](CO)CC1CCCCC1)c1ccc(Cl)cc1             1.6
 8  CC[C@H](C)[C@@H](CO)N(Cc1ccco1)S(=O)(=O)c1ccc(Cl)cc1             1.8
 9     O=S(=O)(N[C@H](CO)CC1CCCCC1)c1ccccc1F             1.8
10  C/C=C(\C)C(O)(/C(C)=C/C)[C@@H](NS(=O)(=O)c1ccc(Cl)cc1)[C@@H](C)CC (stereo partly drawn)             4.2
11  C=C(C)C(O)(C(=C)C)[C@@H](NS(=O)(=O)c1ccc(Cl)cc1)[C@@H](C)CC             1.9
12   CC(C)[C@@](C)(CO)NS(=O)(=O)c1ccc(Br)cc1             4.2
13        CC(C)C[C@H](CO)NS(=O)(=O)c1ccccc1F             1.6
14  CC[C@H](C)[C@@H](CO)NS(=O)(=O)c1ccc(F)cc1             3.3
15       CC(C)C[C@@H](CO)NS(=O)(=O)c1ccccc1F             1.9
16         O=S(=O)(NC1(CO)CCCC1)c1ccc(Cl)cc1             2.6
17     CC(C)C[C@H](CO)NS(=O)(=O)c1ccc(Br)cc1             1.5
18  CC[C@H](C)[C@@H](CO)NS(=O)(=O)c1ccc(Cl)c2nnoc12             1.5
19   O=S(=O)(N[C@H](CO)C1CCCCC1)c1ccc(Br)cc1             2.7
20  CC[C@@H](C)[C@@H](CO)NS(=O)(=O)c1ccc(Br)cc1             6.4
